# credit: PubChem BioAssay

assayed_target: Neurogenic locus notch homolog protein 2 (Homo sapiens) (UniProt Q04721)
Sequence (Q04721 whole entry, looked up): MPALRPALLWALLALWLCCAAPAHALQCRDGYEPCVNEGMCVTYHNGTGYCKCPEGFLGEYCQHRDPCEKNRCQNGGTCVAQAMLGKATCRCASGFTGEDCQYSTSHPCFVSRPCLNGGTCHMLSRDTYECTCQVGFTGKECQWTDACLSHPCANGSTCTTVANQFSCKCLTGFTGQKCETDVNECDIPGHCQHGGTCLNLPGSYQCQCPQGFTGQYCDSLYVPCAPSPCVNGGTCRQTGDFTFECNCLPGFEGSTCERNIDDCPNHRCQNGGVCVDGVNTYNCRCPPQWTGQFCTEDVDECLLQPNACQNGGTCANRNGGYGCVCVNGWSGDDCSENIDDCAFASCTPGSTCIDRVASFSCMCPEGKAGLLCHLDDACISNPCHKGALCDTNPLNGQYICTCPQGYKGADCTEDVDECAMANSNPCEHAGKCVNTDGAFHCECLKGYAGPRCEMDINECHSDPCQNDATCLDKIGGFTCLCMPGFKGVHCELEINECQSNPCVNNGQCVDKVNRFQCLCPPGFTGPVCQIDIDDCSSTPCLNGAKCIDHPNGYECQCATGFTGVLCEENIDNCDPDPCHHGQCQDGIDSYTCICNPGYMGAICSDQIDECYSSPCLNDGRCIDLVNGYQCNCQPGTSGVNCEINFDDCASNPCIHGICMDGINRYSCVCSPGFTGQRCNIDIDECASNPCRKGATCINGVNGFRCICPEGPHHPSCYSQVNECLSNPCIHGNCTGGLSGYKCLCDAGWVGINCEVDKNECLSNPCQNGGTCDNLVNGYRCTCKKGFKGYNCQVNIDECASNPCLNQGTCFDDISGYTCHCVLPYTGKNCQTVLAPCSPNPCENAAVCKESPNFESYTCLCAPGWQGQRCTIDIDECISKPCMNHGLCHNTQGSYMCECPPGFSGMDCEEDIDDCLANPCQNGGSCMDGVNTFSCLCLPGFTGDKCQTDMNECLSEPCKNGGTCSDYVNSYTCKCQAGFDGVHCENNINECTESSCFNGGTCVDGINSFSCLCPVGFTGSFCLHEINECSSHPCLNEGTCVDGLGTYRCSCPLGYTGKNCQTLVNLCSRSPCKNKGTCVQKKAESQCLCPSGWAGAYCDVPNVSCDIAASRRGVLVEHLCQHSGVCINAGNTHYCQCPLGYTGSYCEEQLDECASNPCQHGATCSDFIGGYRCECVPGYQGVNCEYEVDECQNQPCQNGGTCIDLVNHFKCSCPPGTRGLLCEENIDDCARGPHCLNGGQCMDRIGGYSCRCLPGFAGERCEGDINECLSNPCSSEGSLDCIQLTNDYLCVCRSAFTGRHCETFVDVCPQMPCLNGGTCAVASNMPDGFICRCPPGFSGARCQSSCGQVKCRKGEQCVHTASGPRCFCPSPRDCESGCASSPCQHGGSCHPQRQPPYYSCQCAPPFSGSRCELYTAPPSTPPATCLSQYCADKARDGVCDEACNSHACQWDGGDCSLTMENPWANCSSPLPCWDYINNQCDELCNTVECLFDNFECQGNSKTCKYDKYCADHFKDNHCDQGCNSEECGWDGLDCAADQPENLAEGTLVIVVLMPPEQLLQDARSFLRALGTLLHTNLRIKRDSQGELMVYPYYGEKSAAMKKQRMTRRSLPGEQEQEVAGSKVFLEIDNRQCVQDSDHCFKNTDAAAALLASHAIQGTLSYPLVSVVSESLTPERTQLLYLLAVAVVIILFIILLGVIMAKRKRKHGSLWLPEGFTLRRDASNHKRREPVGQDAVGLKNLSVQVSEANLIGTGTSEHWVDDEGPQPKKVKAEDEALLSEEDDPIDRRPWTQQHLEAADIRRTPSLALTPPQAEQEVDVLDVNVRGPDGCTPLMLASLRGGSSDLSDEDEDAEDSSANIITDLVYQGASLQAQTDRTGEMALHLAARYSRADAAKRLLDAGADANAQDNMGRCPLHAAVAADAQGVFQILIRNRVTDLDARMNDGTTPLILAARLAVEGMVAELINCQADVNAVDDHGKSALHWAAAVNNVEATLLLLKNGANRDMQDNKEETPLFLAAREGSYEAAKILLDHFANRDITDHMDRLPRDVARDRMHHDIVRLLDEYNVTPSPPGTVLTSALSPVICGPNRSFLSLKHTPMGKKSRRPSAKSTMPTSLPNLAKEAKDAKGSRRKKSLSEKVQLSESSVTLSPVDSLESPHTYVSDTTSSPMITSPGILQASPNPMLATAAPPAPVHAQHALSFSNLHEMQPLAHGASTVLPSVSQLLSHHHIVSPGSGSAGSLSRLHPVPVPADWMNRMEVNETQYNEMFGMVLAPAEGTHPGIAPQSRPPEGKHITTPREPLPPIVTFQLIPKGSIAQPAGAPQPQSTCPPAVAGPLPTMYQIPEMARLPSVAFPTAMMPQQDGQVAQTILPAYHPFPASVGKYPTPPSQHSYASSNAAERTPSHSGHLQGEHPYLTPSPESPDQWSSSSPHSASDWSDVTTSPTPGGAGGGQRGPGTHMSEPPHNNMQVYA
experimental_details: Notch2 binders on small-molecule microarrays, primary screen, biochemical, small-molecule microarray, 635 nm fluorescence, stem cell growth factors (AID 1073)
condition_context: Notch2 binding, higher = more signal
endpoint: composite z-score
Could you respond with only the numeric value?

Known composite z-score results, listed for orientation:
# molecule, composite z-score
rows = [
    ("COc1ccc(C(=O)Nc2cccc(CN3C(=O)[C@]4(O[C@H](CCO)[C@@H]([Si](C)(C)c5ccc(OC)cc5)[C@@H]4C)c4ccccc43)c2)cc1", 0.484),
    ("COc1cc2c(cc1OC)CN(C(=O)[C@H]1[C@@H]3C(=O)O[C@@H](c4ccccc4)[C@@H](c4ccccc4)N3[C@@H](c3ccc(O)cc3)[C@]13C(=O)Nc1ccc(C#CCNC(N)=O)cc13)CC2", -0.0344),
    ("CN1C(=O)C2C=CC(C(O)Cc3ccccc3)N(Nc3ccccc3)C2C1=O (configuration not stated)", 1.21),
    ("C=CCOC(=O)[C@H]1[C@@H]2C(=O)O[C@@H](c3ccccc3)[C@@H](c3ccccc3)N2[C@@H](c2ccc(OCCOC(=O)[C@@H]3C[C@@H]4C(=O)N[C@@H](CCCC[N+](C)(C)C)C(=O)N4[C@@H]3c3ccc(O)cc3)cc2)[C@]12C(=O)Nc1ccccc12", 0.459),
    ("COC(=O)[C@@]1(Cc2ccc(F)cc2)[C@@H]2[C@@H](CC(=O)[C@H]2CC(=O)C(=O)N(C)C)CN1C(=O)c1ccccc1", 1.76),
    ("C[N+](C)(C)CCCC[C@@H]1NC(=O)[C@@H]2C[C@H](C(=O)NCCCCCN)[C@H](c3cccc(OCCO)c3)N2C1=O", 1.14),
    ("Cc1ccc(C(C)CC(O)C2C=CC3C(=O)N(c4ccccc4)C(=O)C3N2Nc2ccc([N+](=O)[O-])cc2)o1 (configuration not stated)", 1.51),
    ("C=CCNC(=O)[C@H]1[C@@H]2C(=O)O[C@@H](c3ccccc3)[C@@H](c3ccccc3)N2[C@@H](c2ccc(O)cc2)[C@]12C(=O)N(C(=O)OCCOC)c1ccc(C#CCNC(N)=O)cc12", 0.729),
    ("CC(C)C[C@@H]1NC(=O)[C@H]2C[C@@H](C(=O)NCCCCCCN)[C@@H](c3ccc(O)cc3)N2C1=O", -0.277),
    ("C=CCNC(=O)[C@H]1[C@@H]2C(=O)O[C@@H](c3ccccc3)[C@@H](c3ccccc3)N2[C@@H](c2ccc(OCCO)cc2)[C@]12C(=O)N(C(=O)OCCOC)c1ccccc12", 1.45),
]

Tell us which composite z-score value is on record for `COCCOC(=O)N1C(=O)[C@@]2(c3cc(C#CCCO)ccc31)[C@H](C(=O)N1CCN(c3ncccn3)CC1)[C@H]1C(=O)O[C@H](c3ccccc3)[C@H](c3ccccc3)N1[C@@H]2c1ccccc1OCCO`
1.3

State its composite z-score for this molecule: `O=C1c2ccccc2[C@](Cc2ccccc2I)(C(=O)NC2CC2)[C@H](c2ccc(CO)cc2)N1Cc1ccccc1`
0.543

====

experimental_details: binders of probe aFGF2 on microarray, primary screen, stem cell growth factor project, biochemical, small-molecule microarray, fluorescence 635/667 (AID 1067);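 further: measures binding of biotinylated aFGF2 protein to printed compounds on slides; z-score merges feature fluorescence and signal-to-noise across triplicate slides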
condition_context: higher = more signal
Documented composite z-score across a set of molecules
Reply briefly: the number, and no unit.

Worked examples, 3 molecules total:
# molecule, composite z-score
rows = [
    ("COC(=O)[C@@]1(Cc2ccc(F)cc2)[C@H]2c3cc(C(=O)N(C)C)n(Cc4nc5ccccc5[nH]4)c3C[C@H]2CN1C(=O)c1ccccc1", 0.349),
    ("C=C[C@H](COC(C)=O)N(C(=O)OC(C)(C)C)S(=O)(=O)c1ccc(Br)cc1", 0.278),
    ("O=C(O)[C@@]1(CCS(=O)(=O)c2ccccc2)COC(c2ccc(OCCCO)cc2)=N1", -0.196),
]

Tell me measured composite z-score for [N-]=[N+]=Nc1ccccc1C[C@]1(C(=O)NCC(O)CO)N=C(c2ccc(OCCCO)cc2)O[C@H]1c1ccccc1N=[N+]=[N-] (stereo partly drawn) please.
0.056

Entry O=C1OCCC/C=C\[C@H]2OC34C=CCN(Cc5ccccc5)C(=O)[C@H]3N(CCCCCCO)C(=O)[C@@H]4C12 (stereo partly drawn) needs its composite z-score filled in; supply it.
-0.0956

Determine its reported composite z-score: CC(C)(C)OC(=O)CC[C@]1(C(=O)NCC(O)CO)COC(c2ccc(OCCCO)cc2)=N1 (stereo partly drawn)
-0.0551

Look up and state reported composite z-score for `C=C(COC)/C(=C/C[C@H](OC(=O)c1ccncc1)c1ccc(OCCO)cc1)c1cnc2ccccc2c1`
0.0485

Give the reported composite z-score for this molecule. O=C(C1N=C(c2ccc(OCCCO)cc2)N(c2ccccc2)O1)N1CCOCC1 (stereo not drawn)
0.0646

Please indicate composite z-score recorded for CCCCCN1CC=CC23O[C@@H]4/C=C\CCCOC(=O)C4[C@H]2C(=O)N(CCCO)[C@@H]3C1=O (stereo partly drawn)
-0.156

Assign composite z-score to the following record: COCCCNC(=O)C1N=C(c2ccc(OCCCO)cc2)N(c2ccccc2)O1 (stereo not drawn)
0.0038

Please report composite z-score for the following molecule: `COCCCNC(=O)[C@@]1(Cc2ccccc2)N=C(c2ccc(OCCCO)cc2)O[C@H]1c1ccccc1`
0.298

For the molecule `COCCOC(=O)N1C(=O)[C@@]2(c3cc(C#CCCO)ccc31)[C@H](C(=O)Nc1nc3ccccc3s1)[C@H]1C(=O)O[C@H](c3ccccc3)[C@H](c3ccccc3)N1[C@@H]2c1ccc(OCCO)cc1` , give its measured composite z-score value.
-0.0824

Indicate the recorded composite z-score value for this molecule: `[N-]=[N+]=NCc1ccccc1[C@@H]1OC(c2ccc(OCCCO)cc2)=N[C@]1(CCS(=O)(=O)c1ccccc1)C(=O)NCCN1CCOCC1`
0.269

Consider the molecule O=C1OCC=C[C@H]2OC34C=CCN(CCN5CCOCC5)C(=O)[C@H]3N(CCCO)C(=O)[C@@H]4[C@@H]12 (stereo partly drawn) and give its recorded composite z-score.
-0.139

Return value of composite z-score for input O=C1C2C=CC(C(O)C3CCCCC3)N(Nc3ccc([N+](=O)[O-])cc3)C2C(=O)N1c1ccccc1 (stereo not drawn) , no commentary.
0.0333

Give composite z-score for `COCCOC(=O)N1C(=O)[C@@]2(c3cc(C#Cc4ccc(OC)cc4)ccc31)[C@H](c1ccccc1OCCO)N1[C@H](c3ccccc3)[C@H](c3ccccc3)OC(=O)[C@H]1[C@@H]2C(=O)N1CCN(c2ncccn2)CC1`
-0.0336

Please report the measured composite z-score for `C[C@@]1([C@@H](NC(=O)c2ccccc2)c2ccc(-c3ccccc3)cc2)C[C@H]1C1CCCCC1`
0.0891

Read the entry `CN(C)CCCNC(=O)[C@@]1(C)c2ccccc2C(=O)N(Cc2cc(F)cc(C(F)(F)F)c2)[C@H]1c1ccc(CO)cc1` and write its reported composite z-score.
-0.144

# return recorded composite z-score for entry `COCCOC(=O)N1C(=O)[C@@]2(c3cc(C#CC4=CCCCC4)ccc31)[C@H](C(N)=O)[C@H]1C(=O)O[C@H](c3ccccc3)[C@H](c3ccccc3)N1[C@@H]2c1ccc(OCCO)cc1`
-0.0009

Return the recorded composite z-score value; entry: `O=C(NCc1ccccc1)[C@@]1(CCS(=O)(=O)c2ccccc2)N=C(c2ccc(OCCCO)cc2)O[C@H]1c1ccccc1`
0.115

Give a short answer stating reported composite z-score for `CC(=O)NCCCC[C@@H]1NC(=O)[C@@H]2C[C@H](C(=O)NCCCCCCNC(=O)CS)[C@H](c3cccc(OCCO)c3)N2C1=O` .
-0.0212

====

experimental_details: binders of probe aFST on microarray, primary screen, stem cell growth factor project, biochemical, small-molecule microarray, fluorescence 635/667 (AID 1086);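 further: score merges 667 nm fluorescence with signal-to-noise of each printed compound spot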
condition_context: higher = more signal
We begin with a simple list: items and their reported composite z-score.
Respond numerically, and do not add a unit to the figure.

Consider the worked cases shown below.
# compound, composite z-score
measured = [
    ("CCOC(=O)C[C@H]1[C@H](OC(=O)c2ccc(C(=O)c3ccccc3)cc2)[C@@H](NC(=O)c2ccc(-c3ccccc3)cc2)c2cc(OCCCO)ccc2N1C(=O)c1ccccc1", 0.319),
    ("C=CCOC(=O)[C@H]1[C@@H]2C(=O)O[C@@H](c3ccccc3)[C@@H](c3ccccc3)N2[C@@H](c2ccc(OCCOC(=O)[C@@H]3C[C@@H]4C(=O)N[C@@H](CCCCN(C)C)C(=O)N4[C@@H]3c3ccc(O)cc3)cc2)[C@]12C(=O)Nc1ccc(I)cc12", 0.429),
    ("COC(=O)[C@@]1(Cc2ccc(F)cc2)[C@H]2c3cc(C(=O)N4CCCC4)n(Cc4ccc(C)o4)c3C[C@H]2CN1C(=O)c1ccccc1", 1.29),
    ("COC(=O)[C@@]1(Cc2ccc(F)cc2)[C@H]2c3cc(C(=O)N(C)C)n(CC4CC4)c3C[C@H]2CN1C(=O)c1ccccc1", 2.76),
    ("CCOC(=O)[C@H]1CC=C2CC1C(=O)N1CCC[C@@H]1[C@@H]2O[Si](C)(C)C(C)(C)C (stereo partly specified)", -0.686),
    ("COc1ccc([Si](C)(C)[C@H]2[C@H](CCn3cc([C@H](O)c4ccccc4)nn3)O[C@@]3(C(=O)N(Cc4cccc(N5CCOC5=O)c4)c4ccccc43)[C@@H]2C)cc1", -0.0127),
    ("COC(=O)[C@@]1(Cc2ccc(OC)cc2)[C@H]2c3cc(C(=O)N4CCCC4)n(Cc4ccsc4Br)c3C[C@H]2CN1C(=O)c1ccccc1", 1.37),
    ("C=CCNC(=O)[C@@H]1[C@H]2C(=O)O[C@H](c3ccccc3)[C@H](c3ccccc3)N2[C@H](c2ccccc2OCCO)[C@@]12C(=O)N(C(=O)OCCOC)c1ccc(C#CCNC(N)=O)cc12", -0.0306),
    ("COc1ccc(C(O)C2C=CC3C(=O)NC(=O)C3N2Nc2ccccn2)c2ccccc12 (stereo unspecified)", 0.119),
    ("CCCC[C@H]1OB(O)C[C@H]2C1=C(COc1ccccc1)C[C@H]1C(=O)N(C)C(=O)[C@H]12", 1.2),
]

Please supply the value of reported composite z-score for the item `COC(=O)[C@@]1(Cc2ccc(OC)cc2)[C@H]2c3cc(C(=O)N4CCCC4)n(Cc4ccccc4)c3C[C@H]2CN1C(=O)c1ccccc1`
2.34

Recall and state the measured composite z-score for `COc1ccc([Si](C)(C)[C@H]2[C@H](CCO)O[C@@]3(C(=O)N(Cc4ccc(N5C(=O)COc6ccccc65)cc4)c4ccccc43)[C@@H]2C)cc1` .
-0.148

Write down composite z-score measured for item `CN(C)C(=O)[C@@]1(Cc2ccccc2)N=C(c2ccc(OCCCO)cc2)O[C@H]1c1ccccc1N=[N+]=[N-]`
1.69

For the compound `COC(=O)[C@@]1(Cc2ccc(OC)cc2)[C@H]2c3cc(C(=O)N(C)C)n(Cc4cccc5ccccc45)c3C[C@H]2CN1C(=O)c1ccccc1` , give its measured composite z-score value.
1.33

// Input: `O=C1O[C@H](c2ccccc2)[C@H](c2ccccc2)N2[C@H]1[C@@H](C(=O)N1CCN(c3ncccn3)CC1)[C@]1(C(=O)Nc3ccc(C#CC4=CCCCC4)cc31)[C@H]2c1ccc(O)cc1` . Output its composite z-score only.
0.502

Let me know recorded composite z-score for `O=C1c2ccccc2[C@](Cc2ccccc2I)(C(=O)NC2CC2)[C@H](c2ccc(CO)cc2)N1Cc1ccccc1` , thanks.
-0.364

Name the recorded composite z-score of the compound listed here: C=CCC(OC(C)=O)[C@@H]1[C@@H](N(Cc2ccc(-c3ccccc3)cc2)C(=O)Cc2ccc(F)cc2)c2cc(OCCCO)ccc2N1C(=O)c1ccc(-c2ccccc2)cc1 (stereo partly specified)
0.0621

Return value of composite z-score for input `CCc1oc(CC[C@@H](CO)NC(=O)NCCn2cc(C3(O)CCCCC3)nn2)c(C(=O)OC)c1C(=O)OC` , no commentary.
0.457

Supply reported composite z-score belonging to this compound: `COCCOC(=O)N1C(=O)[C@@]2(c3cc(C#CCCO)ccc31)[C@H](C(=O)N1CCN(c3ncccn3)CC1)[C@H]1C(=O)O[C@H](c3ccccc3)[C@H](c3ccccc3)N1[C@@H]2c1ccccc1OCCO`
0.335

Given the compound `O=C1c2ccccc2[C@@]2(Cc3ccccc3N(CC(F)(F)F)C2=O)[C@H](c2ccc(CO)cc2)N1Cc1ccccc1Cl` , write its reported composite z-score.
-0.121

Consider the compound `Cc1ccc(S[C@]2(C(=O)NCC(F)(F)F)CC(=O)N(C(C)C)[C@@H]2c2ccc(CO)cc2I)cc1` and give its recorded composite z-score.
-0.349

Tell me its composite z-score given `CN1C(=O)[C@]2(Cc3ccccc3)N=C(c3ccc(OCCCO)cc3)O[C@@H]2c2ccccc21` as the entry.
0.265

Quickly give me recorded composite z-score for CCCCN1CC=CC23O[C@@H]4/C=C\CCC(C)OC(=O)C4[C@H]2C(=O)N(CCCCCO)[C@@H]3C1=O (stereo partly specified)
-0.526

Read off the recorded composite z-score for `O=C(NCc1ccccc1)[C@@]1(CCS(=O)(=O)c2ccccc2)N=C(c2ccc(OCCCO)cc2)O[C@H]1c1ccccc1`
1.6

Let me know recorded composite z-score for `CC(C)(C)OC(=O)CC[C@]1(C(=O)O)N=C(c2ccc(OCCCO)cc2)O[C@H]1c1ccccc1N=[N+]=[N-]` , thanks.
2.04

// Input: `C=CCNC(=O)[C@H]1[C@@H]2C(=O)O[C@@H](c3ccccc3)[C@@H](c3ccccc3)N2[C@@H](c2ccc(O)cc2)[C@]12C(=O)N(C(=O)OCCOC)c1ccc(C#CCNC(N)=O)cc12` . Output its composite z-score only.
0.007
